Experiment: NCI Yeast Anticancer Drug Screen. Data for the mec2-1 strain (AID 157)
Details: S. cerevisiae mec2-1 strain, at 50.0 µM, hits give high values
About 79,000 compounds went through this panel and 15% of them were active in at least one assay; those are over-represented in the sample as a whole. *1 amine or outer side, *2 acyl side, *3 side chain or, on linkers, in order; H or OH if unused. Where a SMILES comes first, the peptide text is derived from it. [ ]: non-standard residue; d: D form. X2 = CC[C@H](C)[C@H](OC(=O)[C@@H](C)[C@@H](CC)N[*:1])C(=O)[*:2]; X3 = C[C@H](N[*:1])C(=O)C(C)(C)C(=O)[*:2]; NMeY = CN[C@@H](Cc1ccc(O)cc1)C(=O)O; NMeL = CN[C@@H](CC(C)C)C(=O)O; NMeV = CN[C@H](C(=O)O)C(C)C
Classification field: criterion met = growth inhibition at or over 90%; criterion not met = growth inhibition under 90%.

>  <molecule>
COC(=O)C1=C(C)N2CCSC2(C)C(C(=O)OC)C1c1cccc(Cl)c1 (stereo not given)

>  <assigned label>
criterion not met

$$$$
>  <molecule>
[Au+].c1c[n-]cn1.c1ccc([PH+](c2ccccc2)c2ccccc2)cc1

>  <assigned label>
criterion met

$$$$
>  <molecule>
CC[C@H](C)[C@@H]1OC(=O)[C@@H](C)[C@@H](CC)NC(=O)[C@H](C)NC(=O)C(C)(C)C(=O)[C@H](C)NC(=O)[C@H](Cc2ccc(OC)cc2)N(C)C(=O)[C@H](C(C)C)N(C)C(=O)CNC(=O)[C@H](CC(C)C)N(C)C(=O)CNC1=O (cyclo(A[X2]G[NMeL]G[NMeV][NMeY](Me)[X3]))

>  <assigned label>
criterion met

$$$$
>  <molecule>
O=P(O/C(=C\c1ccccc1)c1ccccc1)(c1ccccc1)c1ccccc1

>  <assigned label>
criterion met

$$$$
>  <molecule>
[Cl][Hg].c1ccc([As]c2ccc(-c3ccccc3)cc2)cc1 (stereo not given)

>  <assigned label>
criterion met

$$$$
>  <molecule>
Cn1cnc(N)c1C(=N)[Se]

>  <assigned label>
criterion not met

$$$$
>  <molecule>
O=[N+]([O-])c1cc(C(F)(F)F)cc2n[se]nc12

>  <assigned label>
criterion met

$$$$

Reference source: PubChem BioAssay (NCI)
